For each of the molecules below, state its hERG current change (%, negative = inhibition) at 1uM.
# system.tested: human ether-à-go-go-related gene (hERG) potassium channel (human, UniProt Q12809)
# Sequence (Q12809 whole entry, looked up): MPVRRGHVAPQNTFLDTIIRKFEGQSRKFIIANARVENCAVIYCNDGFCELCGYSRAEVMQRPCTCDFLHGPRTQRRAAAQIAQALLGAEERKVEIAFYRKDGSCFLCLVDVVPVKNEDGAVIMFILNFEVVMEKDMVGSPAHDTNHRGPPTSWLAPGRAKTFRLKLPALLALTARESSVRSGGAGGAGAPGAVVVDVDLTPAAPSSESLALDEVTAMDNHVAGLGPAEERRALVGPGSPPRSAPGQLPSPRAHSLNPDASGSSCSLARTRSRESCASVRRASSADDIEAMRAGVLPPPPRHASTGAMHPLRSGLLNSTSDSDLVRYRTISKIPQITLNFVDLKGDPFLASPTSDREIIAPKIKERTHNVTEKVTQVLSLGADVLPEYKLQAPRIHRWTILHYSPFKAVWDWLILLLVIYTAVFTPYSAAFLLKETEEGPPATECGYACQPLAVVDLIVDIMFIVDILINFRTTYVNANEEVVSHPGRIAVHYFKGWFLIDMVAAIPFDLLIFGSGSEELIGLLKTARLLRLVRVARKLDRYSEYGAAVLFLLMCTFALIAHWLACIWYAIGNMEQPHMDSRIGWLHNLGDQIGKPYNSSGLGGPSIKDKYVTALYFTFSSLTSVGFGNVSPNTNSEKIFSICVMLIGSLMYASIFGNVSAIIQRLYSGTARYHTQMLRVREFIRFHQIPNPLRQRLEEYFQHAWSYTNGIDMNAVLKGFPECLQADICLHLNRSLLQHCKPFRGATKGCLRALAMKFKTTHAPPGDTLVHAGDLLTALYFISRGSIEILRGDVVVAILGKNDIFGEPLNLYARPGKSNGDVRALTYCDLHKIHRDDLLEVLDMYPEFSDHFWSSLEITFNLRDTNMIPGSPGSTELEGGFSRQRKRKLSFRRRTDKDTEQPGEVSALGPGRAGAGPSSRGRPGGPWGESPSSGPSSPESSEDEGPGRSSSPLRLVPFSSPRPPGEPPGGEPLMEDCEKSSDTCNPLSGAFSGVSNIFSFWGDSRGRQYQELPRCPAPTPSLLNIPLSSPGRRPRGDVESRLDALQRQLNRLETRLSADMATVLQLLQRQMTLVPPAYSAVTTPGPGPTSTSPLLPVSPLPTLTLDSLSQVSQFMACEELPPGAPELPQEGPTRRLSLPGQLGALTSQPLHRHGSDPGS
# method: primary screen, population patch clamp on CHO cells stably expressing hERG; higher = less effect of the substance
The campaign covered roughly 310,000 compounds. About 2,200 (0.71%) showed an effect of 50% or more. Effects have a minus sign here. The entries come from a sample that favours strong results as a whole.
Express it in %; write the number only.

Q: Fill blank: measured hERG current change (%, negative = inhibition) at 1uM of the molecule `c1ccc2c(N3CCCCC3)nc(N3CCOCC3)nc2c1` is ____.
Ans: -7.24

Q: Given the entry `O=C(Cn1c(=O)cnc2ccccc21)N1CCN(S(=O)(=O)c2ccccc2Br)CC1` , report its measured hERG current change (%, negative = inhibition) at 1uM.
Ans: 36.9

Q: Endpoint output: hERG current change (%, negative = inhibition) at 1uM of `C=CCn1c(COc2ccc(Cl)cc2)nnc1SCC(=O)N/N=C/c1cccc(O)c1` . Value?
Ans: 4.13

Q: Record request: hERG current change (%, negative = inhibition) at 1uM value, item `Cc1ccc(C)c(-n2c(C)nc3ccccc3c2=O)c1`
Ans: 13.2

Q: I would be grateful if you could share the reported hERG current change (%, negative = inhibition) at 1uM for CC(NCC(=O)Nc1ccccc1C(=O)NC1CC1)c1ccc(S(C)(=O)=O)cc1 (stereo not shown) .
Ans: 10.9

Q: I am curious: what hERG current change (%, negative = inhibition) at 1uM value has been reported for CCOc1ccc(CN2CCN(CCCc3ccccc3)CC2CCO)cc1 (stereo not shown) ?
Ans: -80.9

Q: What value of hERG current change (%, negative = inhibition) at 1uM has been recorded for this entry: COc1ccc(OCC(=O)NCC(c2ccc(OC)cc2)N2CCCCC2)cc1 (stereo not shown)
Ans: -1.58

Q: Field request: hERG current change (%, negative = inhibition) at 1uM | item: `Cc1cc(-c2ccccc2)cc(C)[n+]1Cc1ccccc1.[O-][Cl+3]([O-])([O-])[O-]`
Ans: 6.49

Q: Look up hERG current change (%, negative = inhibition) at 1uM for this molecule: `CCOc1ccc(-c2cc(C)[n+](CCO)c(-c3ccc(OCC)cc3)c2)cc1.[O-][Cl+3]([O-])([O-])[O-]`
Ans: 1.92

Q: Need hERG current change (%, negative = inhibition) at 1uM of `O=[N+]([O-])c1ccc(C[n+]2c(-c3ccccc3)cc(-c3ccccc3)cc2-c2ccccc2)cc1.[O-][Cl+3]([O-])([O-])[O-]` , thanks.
Ans: 7.61

Q: // query hERG current change (%, negative = inhibition) at 1uM value for entry `CCOC(=O)n1c(=O)n(Cc2ccccc2Cl)c2ccccc21`
Ans: 10.3

Q: Endpoint output: hERG current change (%, negative = inhibition) at 1uM of `O=c1c(=Nc2ccccc2O)c(=O)c2ccccc12` . Value?
Ans: 17.3

Q: Requested field: hERG current change (%, negative = inhibition) at 1uM. Item: CCOc1ccccc1CN1CCN(CCCc2ccccc2)CC1CCO (stereo not shown)
Ans: -30

Q: Dear colleague, I am looking for the recorded hERG current change (%, negative = inhibition) at 1uM of the following molecule: `CC12CC3CC(C)(C1)CC(C(=O)NNC(=O)c1ccncc1)(C3)C2`
Ans: -7.13

Q: Name the reported hERG current change (%, negative = inhibition) at 1uM value associated with the molecule `Cc1nc(NC(=O)c2ccccc2[N+](=O)[O-])sc1C(=O)N(C)C`
Ans: 16.4

Q: For the molecule shown here, `CCOc1ccc(-c2cc(C)[n+](CCN(CC)CC)c(-c3ccc(OCC)cc3)c2)cc1.[O-][Cl+3]([O-])([O-])[O-]` , give the reported hERG current change (%, negative = inhibition) at 1uM.
Ans: -19.3

Q: Which measured hERG current change (%, negative = inhibition) at 1uM value corresponds to CCOc1cccc(CN2CCN(CCCc3ccccc3)C(CCO)C2)c1O (stereo not shown) ?
Ans: -54.7

Q: # get_value(readout='hERG current change (%, negative = inhibition) at 1uM', item= `c1ccc2c(N3CCCCC3)nc(N3CCCC3)nc2c1` )
Ans: -64.6

Q: Request the reported hERG current change (%, negative = inhibition) at 1uM associated with `CCOc1ccc(-c2cc(C)[n+](CCc3ccc(OC)c(OC)c3)c(-c3ccc(OCC)cc3)c2)cc1.[O-][Cl+3]([O-])([O-])[O-]`
Ans: -70.1

====

# system.tested: human ether-à-go-go-related gene (hERG) potassium channel (human)
# method: primary screen, population patch clamp on CHO cells stably expressing hERG; higher = less effect of the substance
In all, about 310,000 compounds went through this assay and about 2,200 (0.71%) showed an effect of 50% or more. Effects have a minus sign here. What follows is part of a selection rich in strong results, with near analogues and random picks from the rest.
Answer each item with its documented hERG current change (%, negative = inhibition) at 1uM.
Field: numeric (%). Do not append units.

Q: Give recorded hERG current change (%, negative = inhibition) at 1uM with human ether-à-go-go-related gene (hERG) potassium channel (human) for the following molecule: `CN1CCCN(C(=O)/C=C/c2ccc(F)cc2)CC1`
Ans: -5.11

Q: API: value(readout= hERG current change (%, negative = inhibition) at 1uM, system= human ether-à-go-go-related gene (hERG) potassium channel (human), query= `O=C(/C=C/c1ccc(F)cc1)N1CCCN(C(=O)/C=C/c2ccc(F)cc2)CC1` )
Ans: -84.7

Q: Request body: readout hERG current change (%, negative = inhibition) at 1uM, system human ether-à-go-go-related gene (hERG) potassium channel (human), query `Cc1ccc(Cn2c(SCCN3CCCCC3)nc3c2c(=O)[nH]c(=O)n3C)cc1` . Return the value.
Ans: -77.5

Q: Please tell me: hERG current change (%, negative = inhibition) at 1uM of `Cc1ccc(Cn2c(SCC(C)C)nc3c2c(=O)[nH]c(=O)n3C)cc1` , system human ether-à-go-go-related gene (hERG) potassium channel (human)?
Ans: 9.48

Q: Requested read-out hERG current change (%, negative = inhibition) at 1uM, target or system human ether-à-go-go-related gene (hERG) potassium channel (human), entry `COc1ccc(C(=O)N2CCN(CCc3ccccn3)CC2)cc1.Cl`
Ans: -66.6

Q: Short answer please: hERG current change (%, negative = inhibition) at 1uM, human ether-à-go-go-related gene (hERG) potassium channel (human), entry CC(C)(C)NC(=O)C1Cc2ccccc2CN1S(=O)(=O)c1ccc(F)cc1 (stereo not drawn)
Ans: 3.91

Q: // lookup hERG current change (%, negative = inhibition) at 1uM | system=human ether-à-go-go-related gene (hERG) potassium channel (human) | key= CC1(C)Cc2c(cnn2-c2ccc(F)cc2)C(NC(=O)C2CCC2)C1 (stereo not drawn)
Ans: -56.8

Q: API: value(readout=hERG current change (%, negative = inhibition) at 1uM, system=human ether-à-go-go-related gene (hERG) potassium channel (human)) for record `Cc1ccc(/C=C/C(=O)N2CCCN(C(=O)/C=C/c3ccc(C)cc3)CC2)cc1`
Ans: -53.5

Q: API: value(readout= hERG current change (%, negative = inhibition) at 1uM, system= human ether-à-go-go-related gene (hERG) potassium channel (human), query= Cc1ccccc1N1C(=O)c2ccccc2NC1c1ccncc1 (stereo not drawn) )
Ans: 13

Q: Record `COCCNC(=S)N(Cc1cccs1)Cc1cc2cccc(C)c2[nH]c1=O` : what is its hERG current change (%, negative = inhibition) at 1uM with human ether-à-go-go-related gene (hERG) potassium channel (human)?
Ans: 15.9

Q: Give the reported hERG current change (%, negative = inhibition) at 1uM for `Cc1cc2cc3c(=O)[nH]c(=O)[nH]c3nc2cc1C` (system: human ether-à-go-go-related gene (hERG) potassium channel (human)).
Ans: 12.1

Q: Lab note: need hERG current change (%, negative = inhibition) at 1uM for `CC(=O)Nc1ccc(-n2c(C)ccc2C)cc1` on human ether-à-go-go-related gene (hERG) potassium channel (human), anyone have it?
Ans: 12.9

Q: # query: hERG current change (%, negative = inhibition) at 1uM | item `Cc1ccc(Cn2c(N3CCCCCC3)nc3c2c(=O)[nH]c(=O)n3C)cc1` | system: human ether-à-go-go-related gene (hERG) potassium channel (human)
Ans: 2.45

Q: # get_value(readout= hERG current change (%, negative = inhibition) at 1uM, system= human ether-à-go-go-related gene (hERG) potassium channel (human)) for `O=C(c1ccccc1)N1CCN(CCc2ccccn2)CC1`
Ans: 16.3

Q: Kindly state the measured hERG current change (%, negative = inhibition) at 1uM obtained for `COc1ccc(C(=O)N2CCN(Cc3ccccn3)CC2)cc1.O=C(O)C(=O)O` with human ether-à-go-go-related gene (hERG) potassium channel (human).
Ans: 3.65

Q: Return hERG current change (%, negative = inhibition) at 1uM measured with human ether-à-go-go-related gene (hERG) potassium channel (human) given this molecule: Cc1cc(C(=O)NC2CCCc3c2cnn3-c2ccc(C)c(C)c2)no1 (stereo not drawn)
Ans: 1.86

Q: Give the reported hERG current change (%, negative = inhibition) at 1uM for Cc1ccc(-n2ncc3c2CC(C)(C)CC3NC(=O)c2ccncc2)cc1 (stereo not drawn) (system: human ether-à-go-go-related gene (hERG) potassium channel (human)).
Ans: -48.8

Q: Kindly state the measured hERG current change (%, negative = inhibition) at 1uM obtained for `Cc1cc(C)n(CC(=O)c2ccc(Br)cc2)c(=O)c1C#N` with human ether-à-go-go-related gene (hERG) potassium channel (human).
Ans: -2.8

Q: Give the reported hERG current change (%, negative = inhibition) at 1uM for `CNc1nc(C)nc(-n2nc(C)cc2C)n1` (system: human ether-à-go-go-related gene (hERG) potassium channel (human)).
Ans: 9.5

Q: Provide value of hERG current change (%, negative = inhibition) at 1uM for this record tested with human ether-à-go-go-related gene (hERG) potassium channel (human): `CCN1CCN(C(=O)/C=C/c2ccc(F)cc2)CC1`
Ans: -13.1

Q: I'm curious: which hERG current change (%, negative = inhibition) at 1uM was measured for `O=C(c1sc2cc(Cl)ccc2c1Cl)N1CCN(CCc2ccccn2)CC1` tested on human ether-à-go-go-related gene (hERG) potassium channel (human)?
Ans: -36.6
